Assignment: determine reported Percent control for the given molecules.
- target_of_assay: TRKC (Homo sapiens)
- Sequence (Q16288 32-839): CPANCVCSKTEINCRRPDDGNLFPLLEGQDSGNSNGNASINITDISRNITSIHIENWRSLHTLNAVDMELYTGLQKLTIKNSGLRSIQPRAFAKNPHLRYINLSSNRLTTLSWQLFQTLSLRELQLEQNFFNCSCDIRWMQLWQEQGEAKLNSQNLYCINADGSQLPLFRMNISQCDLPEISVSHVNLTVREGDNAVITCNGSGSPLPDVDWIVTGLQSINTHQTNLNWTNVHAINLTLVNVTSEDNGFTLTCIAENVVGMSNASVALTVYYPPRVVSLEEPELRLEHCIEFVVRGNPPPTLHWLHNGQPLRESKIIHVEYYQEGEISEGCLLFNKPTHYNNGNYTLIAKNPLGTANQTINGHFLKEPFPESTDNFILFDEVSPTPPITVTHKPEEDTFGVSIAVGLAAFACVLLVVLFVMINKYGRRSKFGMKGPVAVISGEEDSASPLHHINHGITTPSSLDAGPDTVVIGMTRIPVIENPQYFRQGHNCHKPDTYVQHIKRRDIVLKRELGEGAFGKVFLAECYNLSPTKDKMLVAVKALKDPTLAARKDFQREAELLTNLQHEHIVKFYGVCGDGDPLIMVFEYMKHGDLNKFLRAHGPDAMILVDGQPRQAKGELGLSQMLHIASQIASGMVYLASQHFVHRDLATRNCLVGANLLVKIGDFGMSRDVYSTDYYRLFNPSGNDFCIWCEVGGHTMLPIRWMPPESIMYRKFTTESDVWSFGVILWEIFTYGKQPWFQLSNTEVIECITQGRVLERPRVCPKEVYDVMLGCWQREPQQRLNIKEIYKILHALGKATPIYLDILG
- condition_set: 10 μM
# number only, unit % dropped from output

Which value of Percent control has been reported for Cc1ccc(NC(=O)c2ccc(CN3CCN(C)CC3)cc2)cc1Nc1nccc(-c2cccnc2)[n+]1[Pt-2]1([Cl])[NH2+]C2CCCCC2[NH2+]1 (stereo not shown) in the records? 100

Which value of Percent control has been reported for C#Cc1cccc(Nc2c3cc(OCCOC)c(OCCOC)cc3nc[n+]2[Pt@SP2-2]([NH3+])([NH3+])[Cl])c1 [2a, cisplatin-erlotinib] in the records? 93

Which value of Percent control has been reported for COc1cc2c(Nc3ccc(Br)cc3F)[n+]([Pt-2]3([Cl])[NH2+]C4CCCCC4[NH2+]3)cnc2cc1OCC1CCN(C)CC1 (stereo not shown) in the records? 98

Which value of Percent control has been reported for Cc1ccc(NC(=O)c2ccc(CN3CCN(C)CC3)cc2)cc1Nc1nccc(-c2cccnc2)n1 [Imatinib, reference compound] in the records? 100

----------
- target_of_assay: EPHB3 (Homo sapiens)
- Construct: purchased DiscoveRx KINOMEscan
- Sequence (P54753 34-998): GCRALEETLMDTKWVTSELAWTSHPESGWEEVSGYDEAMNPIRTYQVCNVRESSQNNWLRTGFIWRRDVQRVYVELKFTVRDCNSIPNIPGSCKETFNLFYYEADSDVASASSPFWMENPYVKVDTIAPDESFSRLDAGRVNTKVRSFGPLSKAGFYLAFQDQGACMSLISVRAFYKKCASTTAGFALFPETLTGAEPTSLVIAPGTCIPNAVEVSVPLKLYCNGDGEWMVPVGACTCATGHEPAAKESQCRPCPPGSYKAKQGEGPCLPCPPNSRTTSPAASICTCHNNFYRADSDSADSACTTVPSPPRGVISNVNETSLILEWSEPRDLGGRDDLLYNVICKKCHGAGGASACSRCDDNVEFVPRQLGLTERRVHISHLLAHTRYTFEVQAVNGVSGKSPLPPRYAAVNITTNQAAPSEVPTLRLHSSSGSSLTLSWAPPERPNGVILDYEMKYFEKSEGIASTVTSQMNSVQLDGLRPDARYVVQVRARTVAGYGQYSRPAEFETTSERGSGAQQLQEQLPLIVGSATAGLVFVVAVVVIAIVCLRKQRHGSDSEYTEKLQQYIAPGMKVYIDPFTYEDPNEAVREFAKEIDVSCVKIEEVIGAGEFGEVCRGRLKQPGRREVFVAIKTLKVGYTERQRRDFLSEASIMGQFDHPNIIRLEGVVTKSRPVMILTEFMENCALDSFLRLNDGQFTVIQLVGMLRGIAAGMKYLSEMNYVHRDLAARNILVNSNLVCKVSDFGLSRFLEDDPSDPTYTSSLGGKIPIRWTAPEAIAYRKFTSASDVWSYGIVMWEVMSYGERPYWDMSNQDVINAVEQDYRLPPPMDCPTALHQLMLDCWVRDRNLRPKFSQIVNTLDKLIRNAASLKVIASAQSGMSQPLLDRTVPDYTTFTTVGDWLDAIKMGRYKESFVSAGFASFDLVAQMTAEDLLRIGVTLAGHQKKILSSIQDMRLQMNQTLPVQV
- Assay type: binding
- condition_set: EPHB3; 10 μM
metric_name: Percent control (%)
# number only, unit % dropped from output

Which value of Percent control has been reported for Cc1ccc(NC(=O)c2ccc(CN3CCN(C)CC3)cc2)cc1Nc1nccc(-c2cccnc2)[n+]1[Pt-2]1([Cl])[NH2+]C2CCCCC2[NH2+]1 (stereo not shown) in the records? 87

Which value of Percent control has been reported for C#Cc1cccc(Nc2c3cc(OCCOC)c(OCCOC)cc3nc[n+]2[Pt@SP2-2]([NH3+])([NH3+])[Cl])c1 [2a, cisplatin-erlotinib] in the records? 88

Which value of Percent control has been reported for Cc1ccc(NC(=O)c2ccc(CN3CCN(C)CC3)cc2)cc1Nc1nccc(-c2cccnc2)n1 [Imatinib, reference compound] in the records? 100

Which value of Percent control has been reported for COc1cc2c(Nc3ccc(Br)cc3F)[n+]([Pt-2]3([Cl])[NH2+]C4CCCCC4[NH2+]3)cnc2cc1OCC1CCN(C)CC1 (stereo not shown) in the records? 100

----------
- target_of_assay: FES (Homo sapiens, UniProt P07332)
- Construct: purchased DiscoveRx KINOMEscan
- Sequence (P07332 whole entry): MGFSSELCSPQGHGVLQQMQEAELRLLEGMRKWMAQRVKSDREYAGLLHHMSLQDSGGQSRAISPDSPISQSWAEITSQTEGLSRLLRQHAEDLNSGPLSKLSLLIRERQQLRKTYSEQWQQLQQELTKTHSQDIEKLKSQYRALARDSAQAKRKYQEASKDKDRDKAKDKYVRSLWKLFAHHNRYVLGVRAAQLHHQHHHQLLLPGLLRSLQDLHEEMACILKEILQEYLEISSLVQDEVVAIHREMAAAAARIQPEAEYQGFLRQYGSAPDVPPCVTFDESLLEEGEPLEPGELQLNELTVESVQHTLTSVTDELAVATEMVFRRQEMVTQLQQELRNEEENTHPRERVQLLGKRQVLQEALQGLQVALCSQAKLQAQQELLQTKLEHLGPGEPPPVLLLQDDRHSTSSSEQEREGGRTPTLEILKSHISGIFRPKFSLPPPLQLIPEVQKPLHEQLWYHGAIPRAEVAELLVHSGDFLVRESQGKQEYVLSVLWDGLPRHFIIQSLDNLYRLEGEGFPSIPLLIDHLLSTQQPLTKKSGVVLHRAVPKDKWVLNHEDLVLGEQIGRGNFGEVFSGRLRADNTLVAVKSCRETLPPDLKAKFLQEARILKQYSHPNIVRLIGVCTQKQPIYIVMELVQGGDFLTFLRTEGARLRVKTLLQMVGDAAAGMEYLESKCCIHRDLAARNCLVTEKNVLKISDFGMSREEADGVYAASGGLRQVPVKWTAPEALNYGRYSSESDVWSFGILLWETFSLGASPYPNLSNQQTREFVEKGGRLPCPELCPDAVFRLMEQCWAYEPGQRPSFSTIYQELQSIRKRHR
- Format: binding
- condition_set: FES; 10 μM
metric_name: Percent control
Hi, when you answer, please include the unit after the number. Thanks!

Which value of Percent control has been reported for C#Cc1cccc(Nc2c3cc(OCCOC)c(OCCOC)cc3nc[n+]2[Pt@SP2-2]([NH3+])([NH3+])[Cl])c1 [2a, cisplatin-erlotinib] in the records? 98%

Which value of Percent control has been reported for COc1cc2c(Nc3ccc(Br)cc3F)[n+]([Pt-2]3([Cl])[NH2+]C4CCCCC4[NH2+]3)cnc2cc1OCC1CCN(C)CC1 (stereo not shown) in the records? 100%

Which value of Percent control has been reported for Cc1ccc(NC(=O)c2ccc(CN3CCN(C)CC3)cc2)cc1Nc1nccc(-c2cccnc2)n1 [Imatinib, reference compound] in the records? 100%

Which value of Percent control has been reported for Cc1ccc(NC(=O)c2ccc(CN3CCN(C)CC3)cc2)cc1Nc1nccc(-c2cccnc2)[n+]1[Pt-2]1([Cl])[NH2+]C2CCCCC2[NH2+]1 (stereo not shown) in the records? 96%

----------
Assignment: determine reported Percent control for the given compounds.
- target_of_assay: UniProtKB P21709
- condition_set: 10 μM
# number only, unit % dropped from output

Which value of Percent control has been reported for Cc1ccc(NC(=O)c2ccc(CN3CCN(C)CC3)cc2)cc1Nc1nccc(-c2cccnc2)[n+]1[Pt-2]1([Cl])[NH2+]C2CCCCC2[NH2+]1 (stereo not shown) [1b, oxaliplatin-imatinib] in the records? 86

Which value of Percent control has been reported for COc1cc2c(Nc3ccc(Br)cc3F)[n+]([Pt-2]3([Cl])[NH2+]C4CCCCC4[NH2+]3)cnc2cc1OCC1CCN(C)CC1 (stereo not shown) [3b, oxaliplatin-vandetanib] in the records? 11

Which value of Percent control has been reported for Cc1ccc(NC(=O)c2ccc(CN3CCN(C)CC3)cc2)cc1Nc1nccc(-c2cccnc2)n1 [Imatinib, reference compound] in the records? 100

Which value of Percent control has been reported for C#Cc1cccc(Nc2c3cc(OCCOC)c(OCCOC)cc3nc[n+]2[Pt@SP2-2]([NH3+])([NH3+])[Cl])c1 [2a, cisplatin-erlotinib] in the records? 73

----------
- target_of_assay: ERBB3 (Homo sapiens, UniProt P21860)
- Construct: purchased DiscoveRx KINOMEscan
- Sequence (P21860 20-1342): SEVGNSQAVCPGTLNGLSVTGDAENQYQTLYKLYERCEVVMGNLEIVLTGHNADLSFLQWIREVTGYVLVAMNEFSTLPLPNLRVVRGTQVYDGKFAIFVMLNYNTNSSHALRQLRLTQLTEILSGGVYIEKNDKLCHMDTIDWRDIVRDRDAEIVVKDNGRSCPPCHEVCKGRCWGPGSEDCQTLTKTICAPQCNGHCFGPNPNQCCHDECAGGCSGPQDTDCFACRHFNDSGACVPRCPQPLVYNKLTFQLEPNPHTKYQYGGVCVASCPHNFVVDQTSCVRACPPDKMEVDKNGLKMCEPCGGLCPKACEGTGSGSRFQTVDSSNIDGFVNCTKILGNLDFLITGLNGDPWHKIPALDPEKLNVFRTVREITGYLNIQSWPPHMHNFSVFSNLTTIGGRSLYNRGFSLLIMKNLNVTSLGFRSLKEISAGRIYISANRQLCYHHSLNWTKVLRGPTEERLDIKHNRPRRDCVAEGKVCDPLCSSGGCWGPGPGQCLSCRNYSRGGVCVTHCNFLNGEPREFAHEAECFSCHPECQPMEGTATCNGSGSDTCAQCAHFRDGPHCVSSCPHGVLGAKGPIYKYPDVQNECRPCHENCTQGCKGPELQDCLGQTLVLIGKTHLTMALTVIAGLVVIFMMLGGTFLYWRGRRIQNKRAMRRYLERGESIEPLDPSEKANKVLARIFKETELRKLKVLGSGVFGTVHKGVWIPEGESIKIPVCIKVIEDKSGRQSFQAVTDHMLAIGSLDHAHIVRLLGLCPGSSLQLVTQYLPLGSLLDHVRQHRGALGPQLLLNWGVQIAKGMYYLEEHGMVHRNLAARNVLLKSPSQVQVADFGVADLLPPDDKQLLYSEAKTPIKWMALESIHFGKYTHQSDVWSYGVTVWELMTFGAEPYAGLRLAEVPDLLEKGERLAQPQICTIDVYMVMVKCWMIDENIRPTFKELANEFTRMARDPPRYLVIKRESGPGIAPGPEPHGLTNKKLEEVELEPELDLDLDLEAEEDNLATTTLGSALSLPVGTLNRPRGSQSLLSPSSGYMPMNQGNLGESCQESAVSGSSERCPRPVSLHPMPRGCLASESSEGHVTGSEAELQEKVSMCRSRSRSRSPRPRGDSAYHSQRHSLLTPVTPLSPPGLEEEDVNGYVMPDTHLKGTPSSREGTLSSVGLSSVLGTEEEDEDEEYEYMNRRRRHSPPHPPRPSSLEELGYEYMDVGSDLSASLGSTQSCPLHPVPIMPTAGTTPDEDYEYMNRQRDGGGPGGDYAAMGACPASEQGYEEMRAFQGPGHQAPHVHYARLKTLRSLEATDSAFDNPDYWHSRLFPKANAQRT
- Format: binding
- condition_set: ERBB3; 10 μM
metric_name: Percent control
Hi, when you answer, please include the unit after the number. Thanks!

Which value of Percent control has been reported for Cc1ccc(NC(=O)c2ccc(CN3CCN(C)CC3)cc2)cc1Nc1nccc(-c2cccnc2)[n+]1[Pt-2]1([Cl])[NH2+]C2CCCCC2[NH2+]1 (stereo not shown) in the records? 100%

Which value of Percent control has been reported for C#Cc1cccc(Nc2c3cc(OCCOC)c(OCCOC)cc3nc[n+]2[Pt@SP2-2]([NH3+])([NH3+])[Cl])c1 [2a, cisplatin-erlotinib] in the records? 100%

Which value of Percent control has been reported for COc1cc2c(Nc3ccc(Br)cc3F)[n+]([Pt-2]3([Cl])[NH2+]C4CCCCC4[NH2+]3)cnc2cc1OCC1CCN(C)CC1 (stereo not shown) in the records? 4.1%

Which value of Percent control has been reported for Cc1ccc(NC(=O)c2ccc(CN3CCN(C)CC3)cc2)cc1Nc1nccc(-c2cccnc2)n1 [Imatinib, reference compound] in the records? 100%

----------
- target_of_assay: MERTK (Homo sapiens)
- Construct: purchased DiscoveRx KINOMEscan
- Sequence (Q12866 21-999): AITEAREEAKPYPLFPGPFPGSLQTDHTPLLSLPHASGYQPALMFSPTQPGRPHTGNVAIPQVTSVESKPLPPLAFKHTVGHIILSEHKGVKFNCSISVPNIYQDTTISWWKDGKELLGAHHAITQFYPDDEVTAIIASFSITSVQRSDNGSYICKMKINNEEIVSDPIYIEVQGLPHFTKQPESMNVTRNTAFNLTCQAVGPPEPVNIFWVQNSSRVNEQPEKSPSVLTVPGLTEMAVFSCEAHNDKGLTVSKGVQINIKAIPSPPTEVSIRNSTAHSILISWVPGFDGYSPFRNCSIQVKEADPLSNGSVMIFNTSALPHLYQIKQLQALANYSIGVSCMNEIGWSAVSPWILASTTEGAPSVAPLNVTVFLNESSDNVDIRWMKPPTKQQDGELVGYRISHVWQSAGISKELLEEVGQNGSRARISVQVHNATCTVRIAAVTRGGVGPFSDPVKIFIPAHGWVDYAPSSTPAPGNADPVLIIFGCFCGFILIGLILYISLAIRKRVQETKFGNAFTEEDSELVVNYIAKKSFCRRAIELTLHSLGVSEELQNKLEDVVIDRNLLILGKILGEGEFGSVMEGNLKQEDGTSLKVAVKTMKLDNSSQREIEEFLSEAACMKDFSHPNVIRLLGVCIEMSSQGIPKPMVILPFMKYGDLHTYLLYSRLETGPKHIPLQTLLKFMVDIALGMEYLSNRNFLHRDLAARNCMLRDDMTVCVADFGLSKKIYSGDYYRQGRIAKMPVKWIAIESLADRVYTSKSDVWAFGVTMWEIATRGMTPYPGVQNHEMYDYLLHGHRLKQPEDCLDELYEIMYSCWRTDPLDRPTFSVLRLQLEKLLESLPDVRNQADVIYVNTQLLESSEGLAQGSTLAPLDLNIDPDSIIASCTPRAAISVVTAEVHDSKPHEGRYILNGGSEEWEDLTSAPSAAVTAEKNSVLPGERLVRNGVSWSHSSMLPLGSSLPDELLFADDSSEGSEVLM
- Type: binding
- condition_set: MERTK; 10 μM
Assignment: determine reported Percent control for the given compounds.
# number only, unit % dropped from output

Which value of Percent control has been reported for Cc1ccc(NC(=O)c2ccc(CN3CCN(C)CC3)cc2)cc1Nc1nccc(-c2cccnc2)[n+]1[Pt-2]1([Cl])[NH2+]C2CCCCC2[NH2+]1 (stereo not shown) in the records? 100

Which value of Percent control has been reported for Cc1ccc(NC(=O)c2ccc(CN3CCN(C)CC3)cc2)cc1Nc1nccc(-c2cccnc2)n1 [Imatinib, reference compound] in the records? 100

Which value of Percent control has been reported for COc1cc2c(Nc3ccc(Br)cc3F)[n+]([Pt-2]3([Cl])[NH2+]C4CCCCC4[NH2+]3)cnc2cc1OCC1CCN(C)CC1 (stereo not shown) in the records? 17

Which value of Percent control has been reported for C#Cc1cccc(Nc2c3cc(OCCOC)c(OCCOC)cc3nc[n+]2[Pt@SP2-2]([NH3+])([NH3+])[Cl])c1 [2a, cisplatin-erlotinib] in the records? 100

----------
Assignment: determine reported Percent control for the given compounds.
- target_of_assay: FLT4 (Homo sapiens)
- condition_set: 10 μM
# number only, unit % dropped from output

Form: Entry = COc1cc2c(Nc3ccc(Br)cc3F)[n+]([Pt-2]3([Cl])[NH2+]C4CCCCC4[NH2+]3)cnc2cc1OCC1CCN(C)CC1 (stereo not shown) | System = FLT4 (Homo sapiens) | Percent control = ____ 14

Form: Entry = Cc1ccc(NC(=O)c2ccc(CN3CCN(C)CC3)cc2)cc1Nc1nccc(-c2cccnc2)[n+]1[Pt-2]1([Cl])[NH2+]C2CCCCC2[NH2+]1 (stereo not shown) | System = FLT4 (Homo sapiens) | Percent control = ____ 99

Form: Entry = Cc1ccc(NC(=O)c2ccc(CN3CCN(C)CC3)cc2)cc1Nc1nccc(-c2cccnc2)n1 [Imatinib, reference compound] | System = FLT4 (Homo sapiens) | Percent control = ____ 100

Form: Entry = C#Cc1cccc(Nc2c3cc(OCCOC)c(OCCOC)cc3nc[n+]2[Pt@SP2-2]([NH3+])([NH3+])[Cl])c1 [2a, cisplatin-erlotinib] | System = FLT4 (Homo sapiens) | Percent control = ____ 90

----------
- target_of_assay: EPHB6 (Homo sapiens, UniProt O15197)
- Sequence (O15197 32-1021): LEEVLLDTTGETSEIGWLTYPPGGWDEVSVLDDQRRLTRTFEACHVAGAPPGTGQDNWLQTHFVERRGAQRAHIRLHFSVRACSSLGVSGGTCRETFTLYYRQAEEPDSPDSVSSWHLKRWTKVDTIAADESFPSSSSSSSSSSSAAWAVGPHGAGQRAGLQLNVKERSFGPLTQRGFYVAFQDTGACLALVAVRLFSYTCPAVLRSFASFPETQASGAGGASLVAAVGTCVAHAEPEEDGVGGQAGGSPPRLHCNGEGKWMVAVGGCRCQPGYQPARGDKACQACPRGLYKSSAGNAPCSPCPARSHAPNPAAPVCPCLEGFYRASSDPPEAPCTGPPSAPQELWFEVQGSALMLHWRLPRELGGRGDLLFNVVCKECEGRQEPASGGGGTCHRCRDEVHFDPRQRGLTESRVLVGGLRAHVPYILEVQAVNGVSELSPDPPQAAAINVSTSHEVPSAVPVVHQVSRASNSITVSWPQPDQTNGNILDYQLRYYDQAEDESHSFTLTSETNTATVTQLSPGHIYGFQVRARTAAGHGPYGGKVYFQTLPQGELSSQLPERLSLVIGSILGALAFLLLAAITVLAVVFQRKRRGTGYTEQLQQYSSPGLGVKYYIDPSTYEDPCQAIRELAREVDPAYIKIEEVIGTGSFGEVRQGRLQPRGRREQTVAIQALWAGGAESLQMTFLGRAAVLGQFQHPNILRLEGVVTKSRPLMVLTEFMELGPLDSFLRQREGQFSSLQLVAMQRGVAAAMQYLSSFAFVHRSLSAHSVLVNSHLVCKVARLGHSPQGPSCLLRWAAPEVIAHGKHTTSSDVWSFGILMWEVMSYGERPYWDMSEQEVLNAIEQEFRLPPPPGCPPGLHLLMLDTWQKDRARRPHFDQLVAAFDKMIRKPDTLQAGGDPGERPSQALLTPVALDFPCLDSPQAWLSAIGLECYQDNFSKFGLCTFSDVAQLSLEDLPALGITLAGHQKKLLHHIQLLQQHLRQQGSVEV
- condition_set: 10 μM
metric_name: Percent control (%)
# number only, unit % dropped from output

Which value of Percent control has been reported for C#Cc1cccc(Nc2c3cc(OCCOC)c(OCCOC)cc3nc[n+]2[Pt@SP2-2]([NH3+])([NH3+])[Cl])c1 [2a, cisplatin-erlotinib] in the records? 76

Which value of Percent control has been reported for Cc1ccc(NC(=O)c2ccc(CN3CCN(C)CC3)cc2)cc1Nc1nccc(-c2cccnc2)[n+]1[Pt-2]1([Cl])[NH2+]C2CCCCC2[NH2+]1 (stereo not shown) in the records? 92

Which value of Percent control has been reported for COc1cc2c(Nc3ccc(Br)cc3F)[n+]([Pt-2]3([Cl])[NH2+]C4CCCCC4[NH2+]3)cnc2cc1OCC1CCN(C)CC1 (stereo not shown) in the records? 2.5

Which value of Percent control has been reported for Cc1ccc(NC(=O)c2ccc(CN3CCN(C)CC3)cc2)cc1Nc1nccc(-c2cccnc2)n1 [Imatinib, reference compound] in the records? 100

Every entry's value here was drawn from paper PMC4858680.
